system: P. falciparum strain W2; assay: Antimalarial proliferation inhibition assay; format: cell-based, Plasmodium falciparum; details: Plasmodium falciparum, W2, read-out: P. falciparum strain IC50 W2, resynthesized powders (data in brackets); mean of at least two experiments
property_label: IC50 (nM)
Express it in nM; write the number only.

Data request, read-out IC50, for NC(Cc1ccccc1)C(=O)N1CCn2c(nc(-c3ccccc3)c2Nc2ccc3c(c2)OCO3)C1 (stereo not drawn) [Compound 1b]
122

If you can, please state the reported IC50 value of NCC(=O)N1CCn2c(nc(-c3ccccc3)c2Nc2ccc3c(c2)OCO3)C1 [Compound 1a] .
473

Give the measured IC50 of CC(C)CC(N)C(=O)N1CCn2c(nc(-c3ccccc3)c2Nc2ccc3c(c2)OCO3)C1 (stereo not drawn) [Compound 1c] .
29
